- Test system: COLO 205 colon
- METHOD_NOTES: NCI-60 one-dose screen, 48 h (100 = growth as untreated, 0 = no growth, -100 = all killed)
- STATED_CONDITIONS: 10 µM unless noted
The panel holds about 83,000 compounds, 20% with a hit somewhere; the sample as a whole holds those more often.
// NB: equality with 90% counts as NOT MET; only growth strictly below is MET

compound=O=[N+]([O-])c1cc(F)c2cccnc2c1O class_label="NOT MET"
compound=CN1CCN(Cc2ccc(NC(=O)c3cncc(C#Cc4ncc5ccccn45)c3)cc2C(F)(F)F)CC1 class_label=MET
compound=Cc1ccc(N=CNN=C(N)N)cc1 class_label="NOT MET"
compound=Nc1nc(N)c2cc(CNc3ccc(Cl)c(Cl)c3)ccc2n1 class_label=MET
compound=CC(=O)Nc1nonc1-c1nc2ccccc2n1Cc1ccc(C(C)(C)C)cc1 class_label="NOT MET"
compound=Cc1nn(-c2ccc(Cl)cc2)c(=O)n1CCN1CCOCC1 class_label="NOT MET"
compound=COc1ccc(/C(=C\c2cc(OC)c(OC)c(OC)c2)C(=O)N2CCNCC2)cc1 class_label="NOT MET"
compound=O=C(c1ccccc1)N(CCCCl)C(=O)N(CCCCl)C(=O)c1ccccc1 class_label="NOT MET"
compound=CN(C)c1ccc(Nc2c3ccccc3nc3ccccc23)cc1 class_label=MET
compound="CC1C2CCC(C2)C1COCCOCCO (stereo unspecified)" class_label="NOT MET"

----------
- Test system: SW-620 colon
- METHOD_NOTES: NCI-60 one-dose screen, 48 h (100 = growth as untreated, 0 = no growth, -100 = all killed)
- STATED_CONDITIONS: 10 µM unless noted
About 83,000 compounds went through this panel and 20% of them were active in at least one assay; those are over-represented in the sample as a whole.
// reported growth for each item listed
OUTCOME_MEASURE: growth (%)

compound=COc1ccc(-c2nc(-c3ccccc3OCc3ccccc3OC)nc(C)c2C(C)=O)cc1 outcome_measure=growth quantitative_result=67.5
compound=CC(=O)c1nn(-c2ccccc2)/c(=N\N=C\c2coc3ccc(F)cc3c2=O)s1 outcome_measure=growth quantitative_result=98.7
compound=COc1ccc2[nH]c(O)c(/C=c3/ccc4c(c3)N=C(c3ccc(F)cc3)N=4)c2c1 outcome_measure=growth quantitative_result=41.3
compound=CC[C@H](Nc1nc(C)nc(N)c1C#N)c1nc2cccc(NCc3ccc(C(=O)NO)cc3)c2c(=O)n1-c1ccccc1 outcome_measure=growth quantitative_result=-31.5
compound="CC(=O)OC1Oc2cc(C)c(C)cc2-c2oc(=O)c(-c3cc4ccccc4oc3=O)cc21 (stereo not given)" outcome_measure=growth quantitative_result=133

----------
- Test system: RXF 393 renal
- METHOD_NOTES: NCI-60 one-dose screen, 48 h (100 = growth as untreated, 0 = no growth, -100 = all killed)
- STATED_CONDITIONS: 10 µM unless noted
About 83,000 compounds went through this panel and 20% of them were active in at least one assay; those are over-represented in the sample as a whole.
# if value of growth reaches 90%, tag 1 (yes); if it stays below, tag 0 (no)

molecule=C/C(=N\OC(=O)Nc1ccccc1)c1ccccc1 target_or_system="RXF 393 renal" class_label="0 (no)"
molecule=CC(C)c1[nH]ncc1-c1nc2ccc3[nH]ncc3c2c2c1CCCC2 target_or_system="RXF 393 renal" class_label="0 (no)"
molecule=CCCCn1c(C)nc2ccc(Nc3nc(Cl)nc4nc[nH]c34)cc21 target_or_system="RXF 393 renal" class_label="0 (no)"
molecule=C/C(=N\NC(=S)Nc1ccccc1)c1ccccn1 target_or_system="RXF 393 renal" class_label="0 (no)"
molecule=COc1ccc2[nH]c(C(=O)OCc3ccc4c(Br)cc(Br)c(O)c4n3)cc2c1 target_or_system="RXF 393 renal" class_label="0 (no)"
molecule=Cc1ccc2oc(=O)cc(-c3nc4ccc([N+](=O)[O-])cc4[nH]3)c2c1 target_or_system="RXF 393 renal" class_label="0 (no)"
molecule=CN(C)c1ccc(N2Cc3ccccc3OC3=C2C(=O)c2c(O)ccc(O)c2C3=O)cn1 target_or_system="RXF 393 renal" class_label="0 (no)"
molecule=CCc1ccc(Nc2cc(C)c3ccc(O)cc3n2)cc1 target_or_system="RXF 393 renal" class_label="0 (no)"
molecule="COc1cc(C2CC(c3ccc(Nc4ccnc5cc(Cl)ccc45)cc3)=NN2c2ccccc2)cc(OC)c1OC (centres undefined)" target_or_system="RXF 393 renal" class_label="0 (no)"
molecule=COC(=O)/C=C/c1cc(OC(C)=O)c2c(c1)[C@@H](C(=O)OC)[C@H](c1ccc(OC(C)=O)c(OC(C)=O)c1)O2 target_or_system="RXF 393 renal" class_label="0 (no)"
molecule=COc1cccc(/C=N/N=C(N)N)c1 target_or_system="RXF 393 renal" class_label="1 (yes)"
molecule=Nc1c(C(=O)Nc2cccc(Cl)c2)sc2ncc(Br)cc12 target_or_system="RXF 393 renal" class_label="0 (no)"
molecule="COC(=O)C1(C)COP(=O)(NC23CC4CC(CC(C4)C2)C3)OC1 (centres undefined)" target_or_system="RXF 393 renal" class_label="1 (yes)"
molecule=CC(=O)O[C@H]1[C@H](CC#CC#CC[C@@H]2C[C@]3(C)[C@H]4CC=C5[C@H]6[C@@H](C)[C@H](C)CC[C@]6(C(=O)NCCCCCCCCN)CC[C@@]5(C)[C@]4(C)CC[C@H]3C(C)(C)[C@H]2OC(C)=O)C[C@]2(C)[C@H]3CC=C4[C@H]5[C@@H](C)[C@H](C)CC[C@]5(C(=O)NCCCCCCCCN)CC[C@@]4(C)[C@]3(C)CC[C@H]2C1(C)C target_or_system="RXF 393 renal" class_label="1 (yes)"
molecule="CCN(CC)CCCC(C)Nc1cnc(C(=O)Nc2ccc(Cl)c3cccnc23)cn1 (centres undefined)" target_or_system="RXF 393 renal" class_label="0 (no)"
molecule="Nc1nc(N)c2c(n1)NC(c1sc(Cl)nc1Cl)CC(c1ccc3c(c1)OCO3)=N2 (centres undefined)" target_or_system="RXF 393 renal" class_label="0 (no)"
molecule=CC(C)COC(=O)NC(C)(C)C target_or_system="RXF 393 renal" class_label="1 (yes)"
molecule=Fc1ccc2nc(-c3ccc(-c4noc(-c5ccc(Cl)cc5)n4)cc3)[nH]c2c1 target_or_system="RXF 393 renal" class_label="1 (yes)"
molecule=CCCCc1n(Cc2ccc3ccccc3n2)cc[n+]1Cc1ccc2ccccc2n1 target_or_system="RXF 393 renal" class_label="0 (no)"

----------
- Test system: SK-MEL-5 melanoma
- METHOD_NOTES: NCI-60 one-dose screen, 48 h (100 = growth as untreated, 0 = no growth, -100 = all killed)
- STATED_CONDITIONS: 10 µM unless noted
About 83,000 compounds went through this panel and 20% of them were active in at least one assay; those are over-represented in the sample as a whole.
OUTCOME_MEASURE: growth (%)

compound="CCN(CC)Cc1cc(Nc2nc(NC3CCC(N(C)C)CC3)c3ccccc3n2)ccc1OC (centres undefined)" outcome_measure=growth quantitative_result=45.7
compound="COc1cc2c(cc1OC)C(=O)C(Br)CC2 (centres undefined)" outcome_measure=growth quantitative_result=53.2
compound=COc1ccc(NC(=O)/C=C/c2ccc(Cl)c(Cl)c2)cn1 outcome_measure=growth quantitative_result=71.4
compound="CC(=O)c1c(O)c(C)c(O)c2c1OC1=CC(=O)/C(=C(/C)N)C(=O)C12C (centres undefined)" outcome_measure=growth quantitative_result=88.4
compound=CC1(C)CC[C@]2(C(=O)N3CCNCC3)CC[C@]3(C)C(=CC[C@@H]4[C@@]5(C)CCC(=O)C(C)(C)[C@@H]5CC[C@]43C)[C@@H]2C1 outcome_measure=growth quantitative_result=102
compound="CCN(CC)CCCC(C)N/C(c1cccc(OC)c1)=c1\\c(=O)[nH]n(-c2c3ccccc3nc3ccccc23)c(=O)\\c1=C(/NC(C)CCCN(CC)CC)c1cccc(OC)c1 (centres undefined)" outcome_measure=growth quantitative_result=-98.9
compound="CCc1ccc2c(c1)N(CCO)C1=C(C(=O)OC1)C2c1cccc(Cl)c1 (centres undefined)" outcome_measure=growth quantitative_result=32.1
compound=Nc1ccc(N(O)/C=C2\C=CC=CC2=O)cc1N outcome_measure=growth quantitative_result=76.3
compound="O=C1CC2(O)CSc3nc(=O)cc(n32)N1 (centres undefined)" outcome_measure=growth quantitative_result=99.5

----------
- Tested on: OVCAR-8 ovarian
- METHOD_NOTES: NCI-60 one-dose screen, 48 h (100 = growth as untreated, 0 = no growth, -100 = all killed)
- STATED_CONDITIONS: 10 µM unless noted
About 83,000 compounds went through this panel and 20% of them were active in at least one assay; those are over-represented in the sample as a whole.
// reported growth for each item listed
OUTCOME_MEASURE: growth (%)

molecule="CCOC(C)(c1ccc(Cl)cc1)C1CCNCC1 (centres undefined)" target_or_system="OVCAR-8 ovarian" outcome_measure=growth quantitative_result=100
molecule=C#CC[C@@H]1C[C@]2(C)[C@H]3CC=C4[C@H]5[C@@H](C)[C@H](C)CC[C@]5(C(=O)NCCCN5CCN(CCCN)CC5)CC[C@@]4(C)[C@]3(C)CC[C@H]2C(C)(C)[C@H]1OC(C)=O target_or_system="OVCAR-8 ovarian" outcome_measure=growth quantitative_result=-58.3
molecule=CCCCn1c(C)nc2cc(Nc3nc(Cl)nc4nc[nH]c34)ccc21 target_or_system="OVCAR-8 ovarian" outcome_measure=growth quantitative_result=84.2
molecule=COc1ccc(-c2nc3ccc(Cc4ccc5nc(-c6ccc(OC)cc6)[nH]c5c4)cc3[nH]2)cc1 target_or_system="OVCAR-8 ovarian" outcome_measure=growth quantitative_result=15.1
